system: Candida parapsilosis; assay: Antifungal activity against Candida parapsilosis ATCC 22019 after 24 hrs by macrodilution method; assay type: functional; details: Lodderomyces parapsilosis, ATCC 22019, 24 h
Overview of reported log10 of MIC across a group of compounds:
Please note: log10 values; quantity MIC; unit µg/mL.

* OC(Cn1cncn1)(Cn1nnc2cccnc21)c1ccc(F)cc1F (racemic) | 1.40
* OC(Cn1cncn1)(Cn1cncn1)c1ccc(F)cc1F [FLUCONAZOLE] | -0.10
* Cc1cc2nn(CC(O)(Cn3cncn3)c3ccc(F)cc3F)nc2cc1C (racemic) | 0.49
* O=[N+]([O-])c1ccc2nnn(CC(O)(Cn3cncn3)c3ccc(F)cc3F)c2c1 (racemic) | 2.00

# input for lookup
Name the recorded log10 of MIC of the item Cc1cc2nnn(CC(O)(Cn3cncn3)c3ccc(F)cc3F)c2cc1C (racemic) in your answer.
1.70

###

tested on: Nakaseomyces glabratus; assay: Antifungal activity against Candida glabrata ATCC 3916 after 24 hrs by macrodilution method; type: functional; settings: ATCC 3916, 24 h
Overview of reported MIC across a group of compounds:

Below are worked cases with known answers.
• OC(Cn1cncn1)(Cn1nnc2ccc(Cl)cc21)c1ccc(F)cc1F (racemic) = > 100 µg/mL
• OC(Cn1cncn1)(Cn1nnc2ccc(F)cc21)c1ccc(F)cc1F (racemic) = > 100 µg/mL

Name the recorded MIC of the item O=[N+]([O-])c1ccc2nnn(CC(O)(Cn3cncn3)c3ccc(F)cc3F)c2c1 (racemic) in your answer.
> 100 µg/mL
